biological target: TACE (Homo sapiens); construct: purchased Immunex; experiment: Procedure for Measuring TACE Inhibition; type: biochemical
Sequence (P78536 215-824): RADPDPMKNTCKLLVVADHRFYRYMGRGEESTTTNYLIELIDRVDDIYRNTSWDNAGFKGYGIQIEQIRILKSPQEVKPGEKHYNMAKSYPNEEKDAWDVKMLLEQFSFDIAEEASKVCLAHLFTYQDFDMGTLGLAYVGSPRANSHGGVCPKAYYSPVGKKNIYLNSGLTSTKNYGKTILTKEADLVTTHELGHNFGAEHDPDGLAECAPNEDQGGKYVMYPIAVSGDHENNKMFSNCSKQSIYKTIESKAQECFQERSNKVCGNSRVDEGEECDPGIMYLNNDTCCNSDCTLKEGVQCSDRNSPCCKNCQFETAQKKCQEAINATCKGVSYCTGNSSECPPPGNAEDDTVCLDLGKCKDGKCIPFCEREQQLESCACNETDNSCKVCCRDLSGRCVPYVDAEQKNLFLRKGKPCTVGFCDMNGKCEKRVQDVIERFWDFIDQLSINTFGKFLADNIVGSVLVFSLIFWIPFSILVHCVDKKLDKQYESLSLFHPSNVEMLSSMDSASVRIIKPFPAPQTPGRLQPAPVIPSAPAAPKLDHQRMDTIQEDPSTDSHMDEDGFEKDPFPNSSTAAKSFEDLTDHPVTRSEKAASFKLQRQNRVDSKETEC
In this section, each of the molecules is paired with its reported IC50.
Give just the numeric value; nM need not be written.

Examples with their reported IC50 follow.
1) COc1ccc(S(=O)(=O)N2CC(C(=O)NO)N(S(=O)(=O)c3ccc(OC)cc3)Cc3ccccc32)cc1 (centres unmarked) [Example 4]    101
2) COc1ccc(S(=O)(=O)N2Cc3ccccc3N(C(=O)CCc3ccccc3)CC2C(=O)NO)cc1 (centres unmarked) [Example 12]    207
3) COc1ccc(S(=O)(=O)N2Cc3ccccc3N(C(C)=O)CC2C(=O)NO)cc1 (centres unmarked) [Example 6]    103

Given COc1ccc(S(=O)(=O)N2Cc3ccccc3N(S(=O)(=O)c3ccc(C)cc3)CC2C(=O)NO)cc1 (centres unmarked) [Example 2] , state its recorded IC50.
391

Given COc1ccc(S(=O)(=O)N2Cc3ccccc3N(C(=O)c3cccc(C(F)(F)F)c3)CC2C(=O)NO)cc1 (centres unmarked) [Example 1] , state its recorded IC50.
352

Given COc1ccc(S(=O)(=O)N2Cc3ccccc3N(C(=O)c3cc(F)ccc3C)CC2C(=O)NO)cc1 (centres unmarked) [Example 11] , state its recorded IC50.
271

Given CCCS(=O)(=O)N1CC(C(=O)NO)N(S(=O)(=O)c2ccc(OC)cc2)Cc2ccccc21 (centres unmarked) [Example 10] , state its recorded IC50.
91

Given COc1ccc(S(=O)(=O)N2Cc3ccccc3N(C(=O)CN3CCN(C)CC3)CC2C(=O)NO)cc1 (centres unmarked) [Example 72] , state its recorded IC50.
808

* * *

target: MMP-13 (Homo sapiens, UniProt P45452); assay: MMP-13 inhibition (Table 1); type: biochemical; conditions: read-out: IC50 (nM) MMP-13
property: IC50 (nM)
Give just the numeric value; nM need not be written.

Examples with their reported IC50 follow.
1. COc1ccc(S(=O)(=O)N2Cc3ccccc3N(C(=O)c3ccc(OC)cc3OC)CC2C(=O)NO)cc1 (stereo not shown)    1.3
2. COc1ccc(S(=O)(=O)N2Cc3ccccc3N(C(=O)c3ccc(Cl)cc3Cl)CC2C(=O)NO)cc1 (stereo not shown)    2.6
3. COc1ccc(S(=O)(=O)N2Cc3cc(C)ccc3N(C(=O)c3ccccc3-n3cccn3)CC2C(=O)NO)cc1 (stereo not shown)    3.1
4. COc1ccc(S(=O)(=O)N2Cc3ccccc3N(C(=O)c3ccc(-n4ccc(C)n4)cc3Cl)CC2C(=O)NO)cc1 (stereo not shown)    2.6
5. COc1ccc(S(=O)(=O)N2Cc3ccccc3N(C(=O)c3cccc(C(F)(F)F)c3)CC2C(=O)NO)cc1 (stereo not shown)    3.7

Given COc1ccc(S(=O)(=O)N2Cc3ccccc3N(C(=O)COc3ccccc3)CC2C(=O)NO)cc1 (stereo not shown) , state its recorded IC50.
2.9

Given COc1ccc(S(=O)(=O)N2Cc3ccccc3N(C(=O)CN3CCN(C)CC3)CC2C(=O)NO)cc1 (stereo not shown) , state its recorded IC50.
317

Given COc1ccc(S(=O)(=O)N2Cc3ccccc3N(Cc3ccccc3)CC2C(=O)NO)cc1 (stereo not shown) , state its recorded IC50.
73.9

* * *

target: MMP-1 (Homo sapiens, UniProt P03956); construct: human recombinant fibroblast collagenase (truncated, mw=18,828); experiment: In Vitro Collagenase Assay (MMP-1); format: biochemical; settings: human recombinant fibroblast collagenase
property: IC50 (nM)
Give just the numeric value; nM need not be written.

IC50 of COc1ccc(S(=O)(=O)N2Cc3ccccc3N(C(=O)c3ccc(-c4ccccc4)cc3)CC2C(=O)NO)cc1 (stereo not drawn) on MMP-1 (Homo sapiens, UniProt P03956)?
52.7

IC50 of COc1ccc(S(=O)(=O)N2Cc3ccccc3N(C(=O)c3ccc(Cl)cc3Cl)CC2C(=O)NO)cc1 (stereo not drawn) on MMP-1 (Homo sapiens, UniProt P03956)?
75.5

IC50 of COc1ccc(S(=O)(=O)N2Cc3ccccc3N(C(=O)C3CCCCC3)CC2C(=O)NO)cc1 (stereo not drawn) on MMP-1 (Homo sapiens, UniProt P03956)?
465

* * *

molecular target: MMP-13 (Homo sapiens, UniProt P45452); assay: MMP-13 inhibition (Table 1); type: biochemical; conditions: read-out: IC50 (nM) MMP-13
property: log10 IC50 (log10 of the value in nM)
Note the log scale: values are log10 of IC50 expressed in nM.

Examples with their reported log10 IC50 follow.
1. COc1ccc(S(=O)(=O)N2CC(C(=O)NO)N(S(=O)(=O)c3ccc(OC)cc3)Cc3ccccc32)cc1 (centres unmarked) [Example 4]    0.63
2. COc1ccc(S(=O)(=O)N2Cc3ccccc3N(C(=O)c3ccccc3)CC2C(=O)NO)cc1 (centres unmarked) [Example 5]    -0.40
3. COc1ccc(S(=O)(=O)N2Cc3ccccc3N(C(C)=O)CC2C(=O)NO)cc1 (centres unmarked) [Example 6]    0.00
4. COc1ccc(S(=O)(=O)N2Cc3ccccc3N(C(=O)c3cc(F)ccc3C)CC2C(=O)NO)cc1 (centres unmarked) [Example 11]    0.36
5. COc1ccc(S(=O)(=O)N2Cc3ccccc3N(C(=O)c3ccccc3-c3ccccc3)CC2C(=O)NO)cc1 (centres unmarked) [Example 14]    0.57

Given COc1ccc(S(=O)(=O)N2Cc3ccccc3N(S(=O)(=O)c3ccc(C)cc3)CC2C(=O)NO)cc1 (centres unmarked) [Example 2] , state its recorded log10 IC50.
0.71

* * *

Target: MMP-1 (Homo sapiens, UniProt P03956)
Construct: human recombinant fibroblast collagenase (truncated, mw=18,828)
Sequence (P03956 100-269 limits assumed): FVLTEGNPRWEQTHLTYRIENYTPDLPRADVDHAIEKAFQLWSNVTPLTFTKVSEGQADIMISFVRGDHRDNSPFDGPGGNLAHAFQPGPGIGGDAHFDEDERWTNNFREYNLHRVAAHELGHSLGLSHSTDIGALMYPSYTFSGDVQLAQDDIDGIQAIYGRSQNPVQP
Test: In Vitro Collagenase Assay (MMP-1)
Assay type: biochemical
Conditions: human recombinant fibroblast collagenase
property: IC50 (nM)
Give just the numeric value; nM need not be written.

Given COc1ccc(S(=O)(=O)N2Cc3ccccc3N(C(=O)c3cccc(C(F)(F)F)c3)CC2C(=O)NO)cc1 (stereo not drawn) [Example 1] , state its recorded IC50.
96.2

Given COc1ccc(S(=O)(=O)N2Cc3ccccc3N(C(=O)C3CC3)CC2C(=O)NO)cc1 (stereo not drawn) [Example 55] , state its recorded IC50.
171

Given COc1ccc(S(=O)(=O)N2Cc3cc(C)ccc3N(C(=O)c3ccccc3)CC2C(=O)NO)cc1 (stereo not drawn) [Example 60] , state its recorded IC50.
22.7

Given COc1ccc(S(=O)(=O)N2Cc3ccccc3N(C(=O)c3ccc(-n4ccc(C)n4)cc3Cl)CC2C(=O)NO)cc1 (stereo not drawn) [Example 66] , state its recorded IC50.
83.4

Given COc1ccc(S(=O)(=O)N2Cc3cc(C)ccc3N(C(=O)c3ccccc3-n3cccn3)CC2C(=O)NO)cc1 (stereo not drawn) [Example 63] , state its recorded IC50.
130

Given COc1ccc(S(=O)(=O)N2Cc3ccccc3N(C(=O)c3cccs3)CC2C(=O)NO)cc1 (stereo not drawn) [Example 8] , state its recorded IC50.
19.7

Given COc1ccc(S(=O)(=O)N2Cc3ccccc3N(C(=O)CCc3ccccc3)CC2C(=O)NO)cc1 (stereo not drawn) [Example 12] , state its recorded IC50.
523

Given CCCS(=O)(=O)N1CC(C(=O)NO)N(S(=O)(=O)c2ccc(OC)cc2)Cc2ccccc21 (stereo not drawn) [Example 10] , state its recorded IC50.
183

Given COCC(=O)N1CC(C(=O)NO)N(S(=O)(=O)c2ccc(OC)cc2)Cc2ccccc21 (stereo not drawn) [Example 9] , state its recorded IC50.
34.1

Given COc1ccc(S(=O)(=O)N2Cc3ccccc3N(C(=O)c3ccco3)CC2C(=O)NO)cc1 (stereo not drawn) [Example 40] , state its recorded IC50.
16.6

Given COc1ccc(S(=O)(=O)N2Cc3ccccc3N(C(=O)c3cccnc3)CC2C(=O)NO)cc1 (stereo not drawn) [Example 7] , state its recorded IC50.
20.4

Given CCOc1ccc(C(=O)N2CC(C(=O)NO)N(S(=O)(=O)c3ccc(OC)cc3)Cc3ccccc32)cc1 (stereo not drawn) [Example 65] , state its recorded IC50.
23.5

* * *

biological target: MMP-13 (Homo sapiens, UniProt P45452); assay: MMP-13 inhibition (Table 1); type: biochemical; details: read-out: IC50 (nM) MMP-13
property: IC50 (nM)
Give just the numeric value; nM need not be written.

Given COc1ccc(S(=O)(=O)N2Cc3ccccc3N(C(=O)c3cccnc3)CC2C(=O)NO)cc1 (centres unmarked) [Example 7] , state its recorded IC50.
0.4

Given COc1ccc(S(=O)(=O)N2Cc3ccccc3N(C(=O)c3ccncc3)CC2C(=O)NO)cc1 (centres unmarked) [Example 13] , state its recorded IC50.
2

Given COc1ccc(S(=O)(=O)N2Cc3ccccc3N(C(=O)c3cccs3)CC2C(=O)NO)cc1 (centres unmarked) [Example 8] , state its recorded IC50.
1.1

Given CCOc1ccc(C(=O)N2CC(C(=O)NO)N(S(=O)(=O)c3ccc(OC)cc3)Cc3ccccc32)cc1 (centres unmarked) [Example 65] , state its recorded IC50.
1.5

Given COCCN1CC(C(=O)NO)N(S(=O)(=O)c2ccc(OC)cc2)Cc2ccccc21 (centres unmarked) [Example 62] , state its recorded IC50.
100

Given COc1ccc(S(=O)(=O)N2Cc3ccc(Cl)cc3N(C(=O)c3ccccc3N3CCOCC3)CC2C(=O)NO)cc1 (centres unmarked) [Example 64] , state its recorded IC50.
3.4

Given COc1ccc(S(=O)(=O)N2Cc3ccccc3N(S(C)(=O)=O)CC2C(=O)NO)cc1 (centres unmarked) [Example 3] , state its recorded IC50.
3

Given COc1ccc(S(=O)(=O)N2Cc3ccc(Cl)cc3N(C(=O)c3ccc(OC(F)(F)F)cc3)CC2C(=O)NO)cc1 (centres unmarked) [Example 61] , state its recorded IC50.
0.4

Given COCC(=O)N1CC(C(=O)NO)N(S(=O)(=O)c2ccc(OC)cc2)Cc2cc(C)ccc21 (centres unmarked) [Example 59] , state its recorded IC50.
1.8

Given COc1ccc(S(=O)(=O)N2Cc3ccccc3N(C(=O)c3ccc(-c4ccccc4)cc3)CC2C(=O)NO)cc1 (centres unmarked) [Example 15] , state its recorded IC50.
0.4

Given COc1ccc(S(=O)(=O)N2Cc3cc(C)ccc3N(C(=O)c3ccccc3)CC2C(=O)NO)cc1 (centres unmarked) [Example 60] , state its recorded IC50.
1.3

Given COCC(=O)N1CC(C(=O)NO)N(S(=O)(=O)c2ccc(OC)cc2)Cc2ccccc21 (centres unmarked) [Example 9] , state its recorded IC50.
1.19

Given CCCS(=O)(=O)N1CC(C(=O)NO)N(S(=O)(=O)c2ccc(OC)cc2)Cc2ccccc21 (centres unmarked) [Example 10] , state its recorded IC50.
2.8

Given COc1ccc(S(=O)(=O)N2Cc3ccccc3N(C(=O)c3ccco3)CC2C(=O)NO)cc1 (centres unmarked) [Example 40] , state its recorded IC50.
1.2
